experiment: Toxicity in ip dosed mouse; assay type: organism-based; settings: in vivo
REPORTED_METRIC: LD50 (mg/kg)
Just the number please, in mg/kg, no unit attached.

query: Which LD50 reading was recorded for the molecule "CC1=C\[C@H](C)C[C@@]2(C)CC[C@@H](O2)[C@@]23CC[C@@](C)(C[C@@H](O2)[C@H]2O[C@](C)(CC2=O)[C@@H](O)[C@@H]2CC[C@@]4(CCC[C@H](O4)[C@@H](C)C(=O)O[C@@H]4C[C@@H]([C@@]5(O)OCC[C@@H](C)[C@H]5O)O[C@@H]4\C=C\1)O2)O3" ?
result: 0.26

====

assay: Toxicity in Artemia salina; format: organism-based; details: in vivo
REPORTED_METRIC: LC50 (µg/mL)
// note: answer is a bare numeric in µg/mL

query: Entry under review: "O=C(NCCSSCCNC(=O)/C(Cc1ccc(O)c(Br)c1)=N/O)/C(Cc1ccc(O)c(Br)c1)=N/O" . Reported LC50?
result: 4
